Origin of the recorded values: patent US20230086703A1

Target: human CTPS1 (Homo sapiens, UniProt P17812)
Construct: FLAG (with GG linker); His8 (with GG linker); purchased Proteros biostructures GmbH
Sequence (P17812 whole entry): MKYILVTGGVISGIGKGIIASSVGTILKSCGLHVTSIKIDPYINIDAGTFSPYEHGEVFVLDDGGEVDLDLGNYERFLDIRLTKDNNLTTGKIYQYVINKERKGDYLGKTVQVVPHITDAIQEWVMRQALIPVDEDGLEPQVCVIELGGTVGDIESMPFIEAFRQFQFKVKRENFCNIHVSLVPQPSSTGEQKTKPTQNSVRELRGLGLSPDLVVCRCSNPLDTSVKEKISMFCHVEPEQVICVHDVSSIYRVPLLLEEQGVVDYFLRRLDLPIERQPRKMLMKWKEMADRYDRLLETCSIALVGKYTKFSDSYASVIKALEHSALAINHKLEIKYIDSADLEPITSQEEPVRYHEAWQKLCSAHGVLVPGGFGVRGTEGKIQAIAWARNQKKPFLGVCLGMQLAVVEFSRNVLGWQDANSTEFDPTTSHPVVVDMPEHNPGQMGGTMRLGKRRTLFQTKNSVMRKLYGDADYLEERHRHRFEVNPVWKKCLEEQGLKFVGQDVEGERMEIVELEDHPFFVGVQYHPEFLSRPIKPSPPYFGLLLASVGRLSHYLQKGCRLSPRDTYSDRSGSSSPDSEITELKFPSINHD
Experiment: RapidFire/MS-based enzyme selectivity assay (human CTPS1 versus CTPS2), CTPS1 isoform
Assay type: biochemical
Settings: Table 16, human CTPS1 over human CTPS2, RapidFire/MS IC50 values
ATTRIBUTE MEASURED: Selectivity (fold selectivity between CTPS1 and CTPS2)

Some molecules with recorded Selectivity (fold selectivity between CTPS1 and CTPS2):
>>> df
                                   molecule                reading
0  Cc1sc(NS(=O)(=O)C2CC2)nc1C(C)(C)NC(=O)c1ccc(-c2cncc(C(F)(F)F)n2)cc1  ++ (>30-60 fold (++))
1  CCOc1cncc(-c2ccc(C(=O)NC(C)c3csc(NS(=O)(=O)C4CC4)n3)c(F)c2)n1 (centres unmarked)   +++ (>60 fold (+++))
2  CC(C)(NC(=O)c1ccc(-c2cncc(C(F)(F)F)n2)cc1F)c1csc(NS(=O)(=O)C2CC2)n1  ++ (>30-60 fold (++))
3  CCOc1cncc(-c2ccc(C(=O)NC(C)(C)c3csc(NS(=O)(=O)C4CC4)n3)c(C)c2)n1      + (2-30 fold (+))
4  CCC(NC(=O)c1ccc(-c2cncc(OC(C)C)n2)cc1F)c1csc(NS(=O)(=O)C2CC2)n1 (racemic)  ++ (>30-60 fold (++))

Query string: Give measured Selectivity (fold selectivity between CTPS1 and CTPS2) for CCC(NC(=O)c1ccc(-c2cncc(C(F)(F)F)n2)cc1)c1csc(NS(=O)(=O)C2CC2)n1 (centres unmarked) (human CTPS1 (Homo sapiens, UniProt P17812)).
Result string: + (2-30 fold (+))

Query string: Give measured Selectivity (fold selectivity between CTPS1 and CTPS2) for CCOc1cncc(-c2ccc(C(=O)NC(CC)c3csc(NS(=O)(=O)C4CC4)n3)c(F)c2)n1 (racemic) [R62] (human CTPS1 (Homo sapiens, UniProt P17812)).
Result string: +++ (>60 fold (+++))

Query string: Give measured Selectivity (fold selectivity between CTPS1 and CTPS2) for "COc1cncc(-c2ccc(C(=O)NC(C)(C)c3csc(NS(=O)(=O)C4CC4)n3)cc2)n1" (human CTPS1 (Homo sapiens, UniProt P17812)).
Result string: + (2-30 fold (+))

---

Target: human CTPS1 (Homo sapiens)
Construct: FLAG (with GG linker); His8 (with GG linker); purchased Proteros biostructures GmbH
Experiment: Human CTPS1 enzyme inhibition, ADP-Glo Max assay
Format: biochemical
Settings: ADP-Glo Max assay; Table 10; read-out: Human CTPS1 Enzyme Inhibition, IC50 grouped by potency range (CTPS1)
pIC50: −log10 of the molar value.
The entries below are paired with their reported pIC50.

Some compounds with recorded pIC50:
                               query_smiles       reading
0  CC(C)(C(=O)Nc1ccc(-c2cncc(OCC(F)(F)F)n2)cc1F)c1csc(NS(=O)(=O)C2CC2)n1        > 7.00
1  CCC(CC)(C(=O)Nc1ccc(-c2cccnc2)cc1)c1csc(NS(=O)(=O)C2CC2)n1        > 7.00
2  CN(C(=O)C(C)(C)c1csc(NS(=O)(=O)C2CC2)n1)c1ccc(-c2cncc(Cl)c2)cc1  5.00 to 6.00
3  CC(C)(C(=O)Nc1ccc(-c2cncc(C(F)(F)F)c2)cc1F)c1csc(NS(C)(=O)=O)n1  6.00 to 7.00
4  CC(C)(C(=O)Nc1ccc(-c2cncc(N3CCCC3)n2)cc1)c1csc(NS(=O)(=O)C2CC2)n1        > 7.00

Then this compound:
Query string: Give me measured pIC50, please, for this compound: "CCOc1cncc(-c2ccc(NC(=O)C(C)(C)c3csc(NS(=O)(=O)C(C)(C)C)n3)cc2)n1"
Result string: 6.00 to 7.00
